# testedTarget: Collagenase 3 (Homo sapiens)
What Ki was measured for each of the following?
Answers are plain numbers, in nM.

Below are worked cases with known answers.
structureSmilesString: COc1ccc(S(=O)(=O)N(C[C@H](O)CO)[C@H](CO)C(=O)NO)cc1
reportedProperty: Ki
measuredValue: 1.7
--
structureSmilesString: COc1ccc(S(=O)(=O)N(CC(=O)NO)C[C@H](O)CO)cc1
reportedProperty: Ki
measuredValue: 3.6
--
structureSmilesString: COc1ccc(S(=O)(=O)N(CCO)CC(=O)NO)cc1
reportedProperty: Ki
measuredValue: 1
--
structureSmilesString: O=C(CN(CCO)S(=O)(=O)c1ccc(-c2ccccc2)cc1)NO
reportedProperty: Ki
measuredValue: 2.7
--
structureSmilesString: COc1ccc(S(=O)(=O)N(CC(=O)NO)CC(C)C)cc1
reportedProperty: Ki
measuredValue: 3.1

q: Give a short answer stating reported Ki for O=C(CN(CCO)S(=O)(=O)c1ccc(F)cc1)NO .
a: 46

---

Measured Ki on Macrophage metalloelastase (Homo sapiens) follows.
Sequence (P39900 whole entry): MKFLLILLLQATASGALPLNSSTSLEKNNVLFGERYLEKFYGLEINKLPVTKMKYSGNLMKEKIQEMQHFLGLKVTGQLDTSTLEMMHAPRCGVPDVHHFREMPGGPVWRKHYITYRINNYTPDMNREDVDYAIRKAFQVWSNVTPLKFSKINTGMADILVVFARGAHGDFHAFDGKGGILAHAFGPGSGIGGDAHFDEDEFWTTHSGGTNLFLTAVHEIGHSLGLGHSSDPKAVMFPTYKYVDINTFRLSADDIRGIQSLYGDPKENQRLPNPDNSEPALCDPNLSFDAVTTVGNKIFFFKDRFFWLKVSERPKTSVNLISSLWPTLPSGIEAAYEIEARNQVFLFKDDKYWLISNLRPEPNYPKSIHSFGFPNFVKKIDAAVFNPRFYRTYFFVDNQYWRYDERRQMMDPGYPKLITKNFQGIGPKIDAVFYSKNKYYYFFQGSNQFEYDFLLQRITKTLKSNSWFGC
Answers are plain numbers, in nM.

Below are worked cases with known answers.
structureSmilesString: COc1ccc(S(=O)(=O)N(CC(=O)NO)CC(C)C)cc1
valueUnits: nM
measuredValue: 4.3

structureSmilesString: COc1ccc(S(=O)(=O)N(CCO)CC(=O)NO)cc1
valueUnits: nM
measuredValue: 7.6

Here is another compound to look at.
q: Give a short answer stating reported Ki for O=C(CN(CCO)S(=O)(=O)c1ccc(F)cc1)NO .
a: 40

---

Target chain: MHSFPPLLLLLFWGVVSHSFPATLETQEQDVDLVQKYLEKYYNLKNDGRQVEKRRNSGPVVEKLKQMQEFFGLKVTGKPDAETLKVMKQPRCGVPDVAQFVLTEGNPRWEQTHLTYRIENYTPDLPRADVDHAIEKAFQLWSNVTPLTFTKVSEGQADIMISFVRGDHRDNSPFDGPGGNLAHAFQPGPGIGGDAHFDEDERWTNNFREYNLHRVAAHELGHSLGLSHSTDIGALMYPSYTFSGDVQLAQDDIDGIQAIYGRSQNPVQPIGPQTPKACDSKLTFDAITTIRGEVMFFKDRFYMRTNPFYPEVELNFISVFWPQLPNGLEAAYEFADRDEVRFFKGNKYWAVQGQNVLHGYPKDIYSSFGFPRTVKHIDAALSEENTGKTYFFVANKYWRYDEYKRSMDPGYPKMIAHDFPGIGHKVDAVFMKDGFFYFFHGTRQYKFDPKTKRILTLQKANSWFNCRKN
reportedProperty: Ki (nM)
Numbers only, in nM.

Below are worked cases with known answers.
structureSmilesString: COc1ccc(S(=O)(=O)N[C@H](CO)C(=O)NO)cc1
measuredValue: 143
//
structureSmilesString: O=C(CN(C[C@H](O)CO)S(=O)(=O)c1ccc(-c2ccccc2)cc1)NO
measuredValue: 742
//
structureSmilesString: COc1ccc(S(=O)(=O)N(CC(=O)NO)C[C@H](O)CO)cc1
measuredValue: 160
//
structureSmilesString: COc1ccc(S(=O)(=O)N[C@@H](C(=O)NO)[C@@H](C)O)cc1
measuredValue: 287

Here is another compound to look at.
q: Give a short answer stating reported Ki for COc1ccc(S(=O)(=O)N(CCO[C@@H]2O[C@H](CO)[C@@H](O)[C@H](O)[C@H]2O)CC(=O)NO)cc1 .
a: 286

---

# testedTarget: Neutrophil collagenase (Homo sapiens)
# Sequence (P22894 whole entry): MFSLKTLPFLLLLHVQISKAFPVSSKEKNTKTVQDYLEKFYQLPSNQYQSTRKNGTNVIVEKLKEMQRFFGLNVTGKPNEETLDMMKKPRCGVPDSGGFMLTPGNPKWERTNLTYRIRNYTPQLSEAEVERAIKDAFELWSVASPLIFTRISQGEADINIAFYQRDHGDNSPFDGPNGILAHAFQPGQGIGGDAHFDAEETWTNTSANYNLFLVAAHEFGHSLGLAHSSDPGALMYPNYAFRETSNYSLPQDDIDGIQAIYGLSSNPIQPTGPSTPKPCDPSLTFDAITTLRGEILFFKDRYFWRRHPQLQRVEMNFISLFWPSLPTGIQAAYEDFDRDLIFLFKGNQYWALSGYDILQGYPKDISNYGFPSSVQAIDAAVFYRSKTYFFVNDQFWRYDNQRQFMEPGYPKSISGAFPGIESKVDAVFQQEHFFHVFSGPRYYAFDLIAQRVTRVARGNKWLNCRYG
# assayInfo: Inhibition of MMP8 by fluorimetric assay
What Ki was measured for each of the following?
Numbers only, in nM.

structureSmilesString: COc1ccc(S(=O)(=O)N(CC(=O)NO)CC(C)C)cc1
measuredValue: 9

structureSmilesString: COc1ccc(S(=O)(=O)N(CC(=O)NO)C[C@H](O)CO)cc1
measuredValue: 24

structureSmilesString: O=C(CN(CCO)S(=O)(=O)c1ccc(-c2ccccc2)cc1)NO
measuredValue: 4.6

Can you give me Ki for all of these, one by one?
1. COc1ccc(S(=O)(=O)N(CCO[C@@H]2O[C@H](CO)[C@@H](O)[C@H](O)[C@H]2O)CC(=O)NO)cc1
2. COc1ccc(S(=O)(=O)N[C@H](CO)C(=O)NO)cc1
3. COc1ccc(S(=O)(=O)N[C@@H](C(=O)NO)[C@@H](C)O)cc1
4. O=C(CN(C[C@H](O)CO)S(=O)(=O)c1ccc(-c2ccccc2)cc1)NO
5. COc1ccc(S(=O)(=O)N(C[C@H](O)CO)[C@H](CO)C(=O)NO)cc1
6. O=C(CN(CCO)S(=O)(=O)c1ccc(F)cc1)NO

a:
[9.1, 9, 10, 48, 8, 173]

q: Give a short answer stating reported Ki for COc1ccc(S(=O)(=O)N(CCO)CC(=O)NO)cc1 .
a: 13
